Reference source for all entries: the supplement of paper PMC11865577

Measured pull-down binding Z-score, listed per entry for reference.
Tested on: TO-N3-2 (biotin conjugate)
EXPERIMENT_NOTES: pull-down binding Z-score (relative to library population); higher = stronger binding
REPORTED_CONDITIONS: RNA library: Library-2
// no unit string in output, number only

Study these solved cases before continuing.
INPUT_SEQUENCE: GUGCCUGGAAUAUUGGUGAACAGAAAUCAAUACUGAGUCCUCUUUAUGCAUUUGCAUCAGAGGCUGCUCGUGUUGUACGAUCAAUUUUCUCCCGCAC [SHAPE_invivo_SARS-CoV-2_Motif_37]
pull-down binding Z-score: 0.225
--
INPUT_SEQUENCE: GGUGAAGGACGGGUCCAGUAGUUCGCUACUGUUGAGUAGAGUGUGAGCUCC [BabySpinach]
pull-down binding Z-score: 2.02
--
INPUT_SEQUENCE: CAGGUACAGUAGAUACUUACCUG [U1snRNP5ss-19]
pull-down binding Z-score: -1.09
--
INPUT_SEQUENCE: GAAGGCUAUUUGAACUCUACUAAUGUCACUAUUGCAACCUACUGUACUGGUUCUAUACCUUGUAGUGUUUGUCUUAGUGGUUUAGAUUCUUU
pull-down binding Z-score: -0.467

// returns reported pull-down binding Z-score for input UUAAAAUAUGACUUCACGGAAGAGAGGUUAAAACUCUUUGACCGUUAUUUUAA [DMSMaPseq_invitro_SARS-CoV-2_Motif_258]
-0.898

Query: pull-down binding Z-score; subject: ACAACCCUUAAGGGUGU [SHAPE_invivo_SARS-CoV-2_Motif_115]
-1.1

Fill blank: measured pull-down binding Z-score of the sequence UUCAUUUUAUUUAUGAUGAG [hsa-mir-496] is ____.
-1.33

Fill blank: measured pull-down binding Z-score of the sequence UGAAUUAGACUCAUUCA [DMSMaPseq_invitro_SARS-CoV-2_Motif_447] is ____.
-0.825
